Test system: SK-OV-3
MEASUREMENT DESCRIPTION: NCI tumour cell line growth inhibition, 48 h
The source made the active and inactive calls. Rule as the data show it: active = GI50 up to about 1.1 µM and inactive = higher.
Entry note: the call must match one of active, inactive

[[record]]
compound = "FC(F)(F)c1ccccc1C1SCc2nc3ccccc3n21 (stereo not given)"
assigned_label = "inactive"

[[record]]
compound = "CCOC(=O)N1c2c(ccn2C)-c2ccn(C)c2N1C(=O)OCC"
assigned_label = "inactive"

[[record]]
compound = "CCC12CCC[C@@]13C=C[C@H](O3)C(C)(C)C2=O (stereo not given in full)"
assigned_label = "inactive"


Assay outcome for O=C(NCCN1CCOCC1)c1ccc(I)cc1 : what was it?
inactive

Assay outcome for O[C@H]1[C@H](O)[C@@H](O)CN2CC[C@H](O)[C@H]12 [CASTANOSPERMINE] : what was it?
inactive

Assay outcome for CC1=NN(c2cccc(S(=O)(=O)O)c2)C2(C1)SCC(=O)N2c1nc2ccccc2s1 (stereo not given) : what was it?
inactive

Assay outcome for S=C(Nc1ccccc1)N(/N=C/C=C/c1ccccc1)c1nnc(-c2ccccc2)c(-c2ccccc2)n1 : what was it?
inactive

Assay outcome for Cc1cc(C)cc(Nc2nnc3n2S(=O)(=O)c2cc(C#N)c(Cl)cc2S3)c1 : what was it?
inactive

Assay outcome for CN(C)c1ccc(/C=C2\N=C(N/N=C/c3ccccc3)NC2=O)cc1 : what was it?
inactive

Assay outcome for CNC(=O)OC(C)CN1c2ccccc2Sc2ccccc21 (stereo not given) : what was it?
inactive

Assay outcome for N#Cc1c(N)oc2cc3c(C#N)c(N)oc3cc12 : what was it?
inactive
